Exercise: state measured residual activity for each of the compounds provided.
- TEST_TARGET: RPS6KB2 (human) (UniProt Q9UBS0)
- Sequence (Q9UBS0 whole entry, looked up): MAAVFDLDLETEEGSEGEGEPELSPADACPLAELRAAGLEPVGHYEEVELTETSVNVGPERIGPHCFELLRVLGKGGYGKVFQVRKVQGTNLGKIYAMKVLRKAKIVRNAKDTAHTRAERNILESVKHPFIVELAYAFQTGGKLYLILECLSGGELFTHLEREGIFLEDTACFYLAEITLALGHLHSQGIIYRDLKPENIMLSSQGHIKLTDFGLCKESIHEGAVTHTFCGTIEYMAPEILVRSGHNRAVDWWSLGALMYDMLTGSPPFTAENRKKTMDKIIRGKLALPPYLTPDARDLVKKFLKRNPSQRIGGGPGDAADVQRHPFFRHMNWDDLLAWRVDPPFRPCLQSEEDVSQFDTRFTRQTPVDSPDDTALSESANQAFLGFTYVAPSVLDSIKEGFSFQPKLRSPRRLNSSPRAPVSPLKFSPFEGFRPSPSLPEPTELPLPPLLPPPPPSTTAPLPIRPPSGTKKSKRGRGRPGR
- ASSAY: radiometric filter-binding kinase assay, Kinase HotSpot
- TEST_CONDITIONS: compound 0.5 µM; ATP 10 µM
Answers are plain numbers, in %.

These solved cases illustrate the format of a correct answer.
COMPOUND_STRUCTURE	residual activity (%)
O=C1Nc2ccc(Br)cc2/C1=C\c1cc2c([nH]1)CCCC2	102
CN(C)S(=O)(=O)c1ccc2c(c1)/C(=C/c1cc3c([nH]1)CCCC3)C(=O)N2	92.6
COc1ccc(S(=O)(=O)N(CCO)c2ccccc2CN(C)C/C=C/c2ccc(Cl)cc2)cc1	97.1

Quick request: residual activity for each listed item, please.
1. Cc1nc(-c2ccccc2)c(-c2ccncc2)o1
2. C[C@@H]1CCN(C(=O)CC#N)C[C@@H]1N(C)c1ncnc2[nH]ccc12
3. Cn1c2ccccc2c2c3c(c4c5ccccc5n(CCC#N)c4c21)CNC3=O
4. COc1ccc2c(c1)/C(=C/c1cnc[nH]1)C(O)=N2
5. N#Cc1c[nH]c2c[nH]/c(=N\Cc3cccnc3)cc2/c1=N\c1ccc(F)c(Cl)c1
6. O=C1NC(=O)c2c1c1c3ccccc3[nH]c1n1cncc21
7. O=C1C(Cl)=C(N2C(=O)CCC2=O)C(=O)c2ccccc21

1: 96; 2: 100; 3: 21.6; 4: 98.7; 5: 99.5; 6: 74.7; 7: 102

May I ask what residual activity has been recorded for O=C1c2ccccc2-c2nc3nnnn3nc21 ?
86.3

Where these numbers come from: the kinase profiling compilation of Christmann-Franck et al. (2016)
